test system: N. gonorrhoeae WHO G; assay: Liquid broth MIC in Fastidious broth; conditions: Neisseria gonorrhoeae, read-out: Minimum Inhibitory Concentration (MIC), N. gonorrhoeae WHO G
Listed compounds paired with reported MIC
readout-name: MIC

- O=C(CN1CCN(C(=O)N[C@@H](C(=O)N[C@H]2Cc3ccc(F)c(C(=O)O)c3OB2O)c2cc(F)c(O)c(O)c2Cl)C(=O)C1=O)NCc1nccs1: 4 to 8 µg/mL
- O=C(O)c1cccc2c1OB(O)[C@@H](NC(=O)C(NC(=O)N1CCN(CC(F)(F)F)C(=O)C1=O)c1ccc(P(=O)(O)O)cc1)C2 (some centres unmarked): < 1 µg/mL
- O=C(NCCN1CCN(C(=O)NC(C(=O)N[C@H]2Cc3ccc(F)c(C(=O)O)c3OB2O)c2cc(F)c(O)c(O)c2Cl)C1=O)c1ccccc1 (some centres unmarked): 16 to 32 µg/mL
- O=C(CN1CCN(C(=O)NC(C(=O)N[C@H]2Cc3ccc(F)c(C(=O)O)c3OB2O)c2cc(F)c(O)c(O)c2Cl)C(=O)C1=O)NCc1cccnc1 (some centres unmarked): 4 to 8 µg/mL
- CC(=O)N1CCC[C@H]1C(=O)NC(C(=O)N[C@H]1Cc2cccc(C(=O)O)c2OB1O)c1ccc(P(=O)(O)O)cc1 (some centres unmarked): 16 to 32 µg/mL
